- targetEntity: human NLRP3 (Homo sapiens (Human))
- testDescription: Scintillation Proximity (SPA) NLRP3 Assay: displacement of 3H-MCC950
- Format: binding
- experimentalConditions: displacement of 3H-MCC950; read-out: SPA IC50
assayMetric: IC50

Prompt: Lab request: please report IC50 under test system human NLRP3 (Homo sapiens (Human)) for C[C@@H]1CCN(c2nnn[nH]2)C[C@H](NC(=O)C2(c3ccc(C(F)(F)F)c(OC(F)F)c3)CC2)C1 (single isomer, unassigned) [54A*]
Response: < 1000 nM

Prompt: I'm curious: which IC50 was measured for C[C@@H]1CCN(c2nnn[nH]2)C[C@H](NC(=O)C2(c3ccc(Cl)c(F)c3F)CC2)C1 (single isomer, unassigned) tested on human NLRP3 (Homo sapiens (Human))?
Response: < 1000 nM

Prompt: Recorded IC50 for C[C@H]1C[C@@H](NC(=O)C2(c3ccc(OC(F)(F)F)cc3)CC2)[C@@H]2CC[C@H]1N2c1nnn[nH]1 [82C*] with human NLRP3 (Homo sapiens (Human)), please?
Response: > 100000 nM

Prompt: For human NLRP3 (Homo sapiens (Human)), provide IC50 of C[C@@H]1C[C@@H](NC(=O)C2(c3ccc(OC(F)F)cc3F)CC2)[C@H]2CC[C@@H]1N2c1nnn[nH]1 (stereo in doubt) [Compound 101A] please.
Response: < 1000 nM

Prompt: What reported IC50 corresponds to Cc1ccc(C2(C(=O)N[C@@H]3C[C@H](C)CCN(c4nnn[nH]4)C3)CC2)c(O)c1F (single isomer, unassigned) [74A*] on human NLRP3 (Homo sapiens (Human))?
Response: < 1000 nM

Prompt: Identify the measured IC50 of O=C(N[C@H]1CN(c2nnn[nH]2)CCC(F)(F)C1)C1(c2ccc(Cl)cc2)CC1 (single isomer, unassigned) [53A*] for human NLRP3 (Homo sapiens (Human)).
Response: < 1000 nM

====

- targetEntity: human NLRP3 (Homo sapiens (Human), UniProt Q96P20)
- Sequence (Q96P20 whole entry): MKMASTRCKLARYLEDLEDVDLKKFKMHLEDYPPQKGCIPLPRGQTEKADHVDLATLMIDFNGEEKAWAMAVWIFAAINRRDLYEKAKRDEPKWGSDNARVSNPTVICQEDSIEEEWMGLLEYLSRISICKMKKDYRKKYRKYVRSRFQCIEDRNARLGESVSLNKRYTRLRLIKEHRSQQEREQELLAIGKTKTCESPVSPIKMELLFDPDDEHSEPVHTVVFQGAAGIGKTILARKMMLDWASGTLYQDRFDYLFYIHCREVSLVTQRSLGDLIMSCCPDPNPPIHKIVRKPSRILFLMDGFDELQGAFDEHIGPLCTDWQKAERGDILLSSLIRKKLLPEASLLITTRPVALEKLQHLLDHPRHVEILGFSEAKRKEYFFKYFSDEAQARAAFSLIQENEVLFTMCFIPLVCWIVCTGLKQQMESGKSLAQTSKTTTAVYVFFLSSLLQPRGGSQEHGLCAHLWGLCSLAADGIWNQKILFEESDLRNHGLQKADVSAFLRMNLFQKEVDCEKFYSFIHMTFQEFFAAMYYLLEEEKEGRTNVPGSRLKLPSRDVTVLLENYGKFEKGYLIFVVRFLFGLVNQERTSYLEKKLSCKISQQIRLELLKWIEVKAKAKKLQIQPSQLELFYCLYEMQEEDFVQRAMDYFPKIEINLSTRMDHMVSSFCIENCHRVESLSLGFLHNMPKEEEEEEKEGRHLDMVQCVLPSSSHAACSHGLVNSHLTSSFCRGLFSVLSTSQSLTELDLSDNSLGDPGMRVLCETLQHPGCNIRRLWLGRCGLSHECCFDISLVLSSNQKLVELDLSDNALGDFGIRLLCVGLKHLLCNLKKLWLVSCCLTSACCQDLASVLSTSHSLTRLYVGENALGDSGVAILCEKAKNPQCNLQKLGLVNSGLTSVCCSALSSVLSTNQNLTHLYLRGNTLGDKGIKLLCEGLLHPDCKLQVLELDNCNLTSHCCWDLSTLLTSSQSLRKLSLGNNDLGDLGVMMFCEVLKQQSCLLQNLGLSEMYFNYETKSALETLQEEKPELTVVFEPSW
- testDescription: Scintillation Proximity (SPA) NLRP3 Assay: displacement of 3H-MCC950
- Type: binding
- experimentalConditions: displacement of 3H-MCC950; read-out: SPA IC50
Reported IC50 is given for each of the following compounds.

Field: example entries. Status: answers known.
[[record]]
compound = "Cc1ccc(C2(C(=O)N[C@H]3C[C@H](C)[C@H]4CC[C@@H]3N4c3nnn[nH]3)CC2)cc1 [87D*]"
assaymetric = "IC50"
result = "> 100 µM"

[[record]]
compound = "Cc1ccc(C2(C(=O)N[C@@H]3C[C@@H](C)CCN(c4nnn[nH]4)C3)CC2)c(O)c1 (single isomer, unassigned) [67C*]"
assaymetric = "IC50"
result = "10 to 50 µM"

[[record]]
compound = "C[C@H]1CCN(c2nnn[nH]2)C[C@@H](NC(=O)C2(c3ccc(Cl)nc3O)CC2)C1 (single isomer, unassigned) [100D*]"
assaymetric = "IC50"
result = "> 100 µM"

[[record]]
compound = "O=C(N[C@H]1CC[C@@H]2CC[C@H]1N2c1nnn[nH]1)C1(c2ccc(OC(F)F)cc2O)CC1 [77B*]"
assaymetric = "IC50"
result = "10 to 50 µM"

[[record]]
compound = "C[C@@H]1C[C@@H](NC(=O)C2(c3ccc(Cl)cc3)CC2)CN(c2nnn[nH]2)C1 [Compound 46C]"
assaymetric = "IC50"
result = "10 to 50 µM"

[[record]]
compound = "C[C@@H]1CCN(c2nnn[nH]2)C[C@@H](NC(=O)C2(c3ccc(OC(F)F)c(F)c3)CC2)C1 (single isomer, unassigned) [73B*]"
assaymetric = "IC50"
result = "1 to 10 µM"


Moving on to another compound below.
Prompt: Any idea what IC50 was measured for C[C@@H]1CC[C@@H](NC(=O)C2(c3ccc(C4CC4)cc3O)CC2)CN(c2nnn[nH]2)C1 (single isomer, unassigned) [91C*] ?
Response: 50 to 100 µM

====

Listing of entries alongside the reported pIC50.
- targetEntity: human NLRP3 (Homo sapiens (Human))
- testDescription: Human Whole Blood (hWB) NLRP3 Assay (LPS/ATP, IL-1β)
- Type: cell-based
- experimentalConditions: read-out: hWB IC50
// pIC50 here means minus log10 of the molar concentration (mol/L)

[[record]]
molecule = "O=C(N[C@@H]1CCCN(c2nnn[nH]2)C1)C1(c2ccc(Cl)cc2O)CC1 [Compound 15A]"
targetentity = "human NLRP3 (Homo sapiens (Human))"
assaymetric = "pIC50"
resultnumber = 6.27

[[record]]
molecule = "O=C(N[C@@H]1CCCCN(c2nnn[nH]2)C1)C1(c2ccc(Cl)cc2)CC1 [Compound 51A]"
targetentity = "human NLRP3 (Homo sapiens (Human))"
assaymetric = "pIC50"
resultnumber = 6.14


Turning to the following molecule.
Prompt: Please report the recorded pIC50 for O=C(N[C@@H]1CCCCN(c2nnn[nH]2)C1)C1(c2ccc(Cl)cc2O)CC1 [Compound 52A] .
Response: 6.59

====

- targetEntity: human NLRP3 (Homo sapiens (Human), UniProt Q96P20)
- testDescription: Human Whole Blood (hWB) NLRP3 Assay (LPS/ATP, IL-1β)
- Type: cell-based
- experimentalConditions: read-out: hWB IC50
Parameter: IC50. Scope: all listed entries.
// return numeric value only (unit: nM, not printed)

[[record]]
molecule = "C[C@H]1C[C@@H](NC(=O)C2(c3ccc(Cl)cc3O)CC2)CN(c2nnn[nH]2)C1 [Compound 47A]"
targetentity = "human NLRP3 (Homo sapiens (Human), UniProt Q96P20)"
unitdescriptor = "nM"
resultnumber = 220


Prompt: Quick check: IC50 on human NLRP3 (Homo sapiens (Human), UniProt Q96P20), item O=C(N[C@@H]1CCCN(c2nnn[nH]2)C1)C1(c2ccc(Cl)cc2)CC1 [Compound 10A] ?
Response: 7300

Prompt: IC50 of C[C@H]1C[C@@H](NC(=O)C2(c3ccc(C(F)(F)F)cc3O)CC2)CN(c2nnn[nH]2)C1 [Compound 16A] on human NLRP3 (Homo sapiens (Human), UniProt Q96P20)?
Response: 61

Prompt: Query for human NLRP3 (Homo sapiens (Human), UniProt Q96P20): what IC50 does the record show for C[C@H]1C[C@@H](NC(=O)C2(c3ccc(Cl)cc3)CC2)CN(c2nnn[nH]2)C1 [Compound 46A] ?
Response: 2500

Prompt: Reported IC50 for human NLRP3 (Homo sapiens (Human), UniProt Q96P20), given C[C@@H]1C[C@@H](NC(=O)C2(c3ccc(Cl)cc3)CC2)[C@H]2CC[C@@H]1N2c1nnn[nH]1 [80A*] ?
Response: 840

Prompt: Provide value of IC50 for this record tested with human NLRP3 (Homo sapiens (Human), UniProt Q96P20): C[C@H]1C[C@@H](NC(=O)C2(c3ccc(OC(F)(F)F)cc3O)CC2)CN(c2nnn[nH]2)C1 [Compound 17A]
Response: 230

====

- targetEntity: human NLRP3 (Homo sapiens (Human))
- testDescription: Human Whole Blood (hWB) NLRP3 Assay (LPS/ATP, IL-1β)
- Type: cell-based
- experimentalConditions: human whole blood, LPS/ATP, IL-1β; read-out: hWB IC50
pIC50: −log10 of the molar value.
assayMetric: pIC50

Solved entries:
[[record]]
compound = "O=C(N[C@@H]1CC[C@H]2CC[C@@H]1N2c1nnn[nH]1)C1(c2ccc(Cl)cc2O)CC1 [75C*]"
result = "5.70 to 6.00"

[[record]]
compound = "O=C(N[C@@H]1CCCCCN(c2nnn[nH]2)C1)C1(c2ccc(Cl)cc2)CC1 (single isomer, unassigned) [14A*]"
result = "5.70 to 6.00"

[[record]]
compound = "Cc1ccc(C2(C(=O)N[C@@H]3C[C@H](C)CN(c4nnn[nH]4)C3)CC2)c(O)c1 [Compound 20A]"
result = "> 6.00"

[[record]]
compound = "O=C(N[C@@H]1CCCN(c2nnn[nH]2)C1)C1(c2ccc(Cl)cc2)CC1 [Compound 10A]"
result = "< 5.52"

[[record]]
compound = "O=C(N[C@@H]1CC[C@H]2CC[C@@H]1N2c1nnn[nH]1)C1(c2ccc(OC(F)(F)F)cc2O)CC1 [78C*]"
result = "5.52 to 5.70"


Prompt: Which measured pIC50 belongs to Cc1cc(Cl)cc(O)c1C1(C(=O)N[C@@H]2C[C@H](C)CN(c3nnn[nH]3)C2)CC1 [Compound 33A] , tested on human NLRP3 (Homo sapiens (Human))?
Response: < 5.52

Prompt: Recorded pIC50 for O=C(N[C@@H]1C[C@H](C(F)(F)F)CN(c2nnn[nH]2)C1)C1(c2ccc(Cl)cc2)CC1 [Compound 45A] with human NLRP3 (Homo sapiens (Human)), please?
Response: 5.52 to 5.70

====

- targetEntity: human NLRP3 (Homo sapiens (Human), UniProt Q96P20)
- testDescription: Human PBMC NLRP3 Assay (LPS priming, ATP stimulation, cytokine measurement)
- Assay type: cell-based
- experimentalConditions: human PBMC, LPS priming, ATP stimulation; read-out: PBMC IC50
pIC50: −log10 of the molar value.
assayMetric: pIC50

Prompt: Could you share which pIC50 value was measured for O=C(N[C@@H]1CC[C@H]2CC[C@@H]1N2c1nnn[nH]1)C1(c2ccc(OC(F)F)cc2)CC1 ?
Response: < 6.30

Prompt: Quick one: pIC50 of CC1(C)C[C@@H](NC(=O)C2(c3ccc(Cl)cc3O)CC2)CN(c2nnn[nH]2)C1 (single isomer, unassigned) [42A*] ?
Response: > 8.00

Prompt: Record request: pIC50 value, item O=C(N[C@@H]1CCCN(c2nnn[nH]2)C1)C1(c2ccc(Cl)cc2O)CC1 [Compound 15A]
Response: 6.30 to 7.00

Prompt: What measured pIC50 goes with C[C@@H]1CCN(c2nnn[nH]2)C[C@@H](NC(=O)C2(c3ccc(C(F)(F)F)cc3O)CC2)C1 (single isomer, unassigned) [63B*] ?
Response: 7.00 to 8.00
